test: in vivo pharmacokinetic study in mice by ip administration; set-up: species or system C57Bl/6 mice; settings: C57Bl/6; mouse, 10 mg/kg ip, Brain; read-out: T½ (converted)
REPORTED METRIC: half-life

// half-life value for CN(c1ccc2ncc(-c3ccc4cn[nH]c4c3)n2n1)C1CCOCC1 : 9.6 min

----------
assay: in vivo pharmacokinetic study in mice by ip administration; parameters: species or system C57Bl/6 mice; conditions: C57Bl/6, mouse, brain/plasma, ip, 10 mg/kg, mice, ip administration, all time points; read-out: brain/plasma concentration ratio
REPORTED METRIC: Kp

// Kp value for CN(c1ccc2ncc(-c3ccc4cn[nH]c4c3)n2n1)C1CCOCC1 : ~0.4

----------
test: in vivo pharmacokinetic study in mice by ip administration; design: species or system C57Bl/6 mice; conditions: C57Bl/6; mouse, dose of 10 mg/kg by IP; read-out: half-life (converted)
REPORTED METRIC: half-life

// half-life value for CN(c1ccc2ncc(-c3ccc4cn[nH]c4c3)n2n1)C1CCOCC1 : 9.6 min

----------
assay: in vivo pharmacokinetic study in mice by ip administration; design: species or system C57Bl/6 mice; settings: C57Bl/6, mouse, plasma, ip, 10 mg/kg, mouse, 10 mg/kg IP, 0.5 h, individual animals; read-out: Plasma concentration
REPORTED METRIC: concentration at 0.5 h (ng/mL)
A number alone suffices; assume ng/mL.

// concentration at 0.5 h value for CN(c1ccc2ncc(-c3ccc4cn[nH]c4c3)n2n1)C1CCOCC1 [Compound 19] : 782

----------
The compounds listed here are annotated with their inhibition at 50 µM.
tested on: U251 cells expressing Fluc construct; test: control Fluc (full length luciferase) reporter assay in U251 cells; assay type: cell-based; conditions: Homo sapiens, U-251, 6 h; Concn 50 uM; read-out: Fluc Imax % Inh
A number alone suffices; assume %.

1) CCCNc1ccc2ncc(-c3ccc4[nH]ncc4c3)n2n1 [Compound 48]	29
2) FC1(F)CCC(Nc2ccc3ncc(-c4ccc5[nH]ncc5c4)n3n2)CC1 [Compound 46]	17
3) c1cc2[nH]ncc2cc1-c1cnc2ccc(N3CCOCC3)nn12 [Compound 51]	27
4) CN(CCNc1ccc2ncc(-c3ccc(C(N)=O)cc3)n2n1)C(=O)OC(C)(C)C [SRI-43415]	9
5) c1cc2cn[nH]c2cc1-c1cnc2ccc(OC3CCOCC3)nn12 [Compound 58]	23
6) c1cc2[nH]ncc2cc1-c1cnc2ccc(OC3CCOCC3)nn12 [Compound 57]	12

Switching to the query record.
Considering c1nn(C2CCOCC2)cc1Nc1ncc2nnn(-c3ccc4cn[nH]c4c3)c2n1 [Compound A-92] , its inhibition at 50 µM with U251 cells expressing Fluc construct was recorded as 32

----------
biological target: HuR (Homo sapiens, UniProt Q15717); construct: expressed in transfected cells; host or cells: U251 glioma cells, doxycycline-inducible constructs; experiment: cell-based split firefly luciferase-HuR dimerization assay; conditions: U251 cells co-expressing HuR-Nluc and HuR-Cluc, 6 hours of treatment; read-out: HuR IC50
Sequence (Q15717 whole entry): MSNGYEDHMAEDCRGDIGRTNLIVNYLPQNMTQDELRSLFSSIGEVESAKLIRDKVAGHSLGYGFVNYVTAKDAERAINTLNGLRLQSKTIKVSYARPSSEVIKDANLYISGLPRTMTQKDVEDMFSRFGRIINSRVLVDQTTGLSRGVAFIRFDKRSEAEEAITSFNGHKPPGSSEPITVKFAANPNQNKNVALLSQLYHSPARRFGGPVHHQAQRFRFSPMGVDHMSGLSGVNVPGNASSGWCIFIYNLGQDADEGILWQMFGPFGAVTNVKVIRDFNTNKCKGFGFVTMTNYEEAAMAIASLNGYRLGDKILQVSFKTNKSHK
The compounds listed here are annotated with their log10 of IC50.
Units before log transform: µM; reported quantity: IC50; transform: log10.

1) FC(F)(F)CNc1ccc2ncc(-c3ccc4[nH]ncc4c3)n2n1	-0.72
2) CCCN(C)c1ccc2ncc(-c3ccc4[nH]nc(C(C)=O)c4c3)n2n1	0.78
3) CN(c1ccc2ncc(-c3ccc4cn[nH]c4c3)n2n1)C1CCOCC1	0.08
4) c1cc2[nH]ncc2cc1-c1cnc2ccc(N3CCOCC3)nn12	0.85

Switching to the query record.
// log10 of IC50 value for CCCN(C)c1ccc2ncc(-c3ccc4[nH]ncc4c3)n2n1 : -0.22

----------
test: in vitro; conditions: human, liver microsomes
REPORTED METRIC: half-life (min)
A number alone suffices; assume min.

See these solved cases before continuing.
1) CCCNc1ccc2ncc(-c3ccc4[nH]ncc4c3)n2n1	6.1
2) CN(c1ccc2ncc(-c3ccc4cn[nH]c4c3)n2n1)C1CCOCC1	8.6
3) CCCN(C)c1ccc2ncc(-c3ccc4cn[nH]c4c3)n2n1	9.7
4) CCCN(C)c1ccc2ncc(-c3ccc4[nH]nc(C(C)=O)c4c3)n2n1	6.3
5) CN(c1ccc2ncc(-c3ccc4cn[nH]c4c3)n2n1)C1CCC(F)(F)CC1	82.8

// half-life value for Cc1n[nH]c2cc(-c3cnc4ccc(N(C)C5CCOCC5)nn34)ccc12 : 9

// half-life value for CCCN(C)c1ccc2ncc(-c3ccc4cnn(C)c4c3)n2n1 : 7.9

// half-life value for FC1(F)CCC(Nc2ccc3ncc(-c4ccc5cn[nH]c5c4)n3n2)CC1 : 27.3

// half-life value for FC(F)(F)CNc1ccc2ncc(-c3ccc4[nH]ncc4c3)n2n1 : 12.1

----------
test: in vivo pharmacokinetic study in mice by ip administration; design: species or system C57Bl/6 mice; details: C57Bl/6; mouse, 10 mg/kg ip, Plasma
REPORTED METRIC: AUC(0-t) (ng·h/mL)
A number alone suffices; assume ng·h/mL.

// AUC(0-t) value for CN(c1ccc2ncc(-c3ccc4cn[nH]c4c3)n2n1)C1CCOCC1 : 1320

----------
experiment: Plasma protein binding; format: in vitro ADME
REPORTED METRIC: fraction unbound
Note: the reply should be a number with no unit written.

// fraction unbound value for CN(c1ccc2ncc(-c3ccc4cn[nH]c4c3)n2n1)C1CCOCC1 : 0.0356

----------
assay: in vivo pharmacokinetic study in mice by ip administration; set-up: species or system C57Bl/6 mice; conditions: C57Bl/6, mouse, plasma, ip, 10 mg/kg, mouse, 10 mg/kg IP, 0.167 h, individual animals; read-out: Plasma concentration
REPORTED METRIC: concentration at 0.167 h (ng/mL)
A number alone suffices; assume ng/mL.

// concentration at 0.167 h value for CN(c1ccc2ncc(-c3ccc4cn[nH]c4c3)n2n1)C1CCOCC1 : 2910

----------
assay: in vivo pharmacokinetic study in mice by ip administration; design: species or system C57Bl/6 mice; details: C57Bl/6; mouse, 10 mg/kg ip, Plasma
REPORTED METRIC: Cmax (ng/mL)
A number alone suffices; assume ng/mL.

// Cmax value for CN(c1ccc2ncc(-c3ccc4cn[nH]c4c3)n2n1)C1CCOCC1 : 3460

----------
The compounds listed here are annotated with their log10 solubility.
assay: aqueous solubility at pH 7.4; type: physicochemical; details: aqueous medium at pH 7.4, pH 7.4, aqueous buffer; read-out: Sol @ pH 7.4
Units before log transform: µM; reported quantity: solubility; transform: log10.

See these solved cases before continuing.
1. CN(c1ccc2ncc(-c3ccc4cn[nH]c4c3)n2n1)C1CCC(F)(F)CC1	1.89
2. Cn1ncc2ccc(-c3cnc4ccc(NC5CCOCC5)nn34)cc21	1.90
3. FC1(F)CCC(Nc2ccc3ncc(-c4ccc5cn[nH]c5c4)n3n2)CC1	0.32
4. CCCN(C)c1ccc2ncc(-c3ccc4cn[nH]c4c3)n2n1	1.04

Switching to the query record.
// log10 solubility value for CN(c1ccc2ncc(-c3ccc4cn[nH]c4c3)n2n1)C1CCOCC1 : 0.38

----------
The molecules listed here are annotated with their IC50.
tested on: PDGx XD456 glioma cell line; assay: PrestoBlue cell viability assay; format: cell-based; conditions: Glioma cell; XD456, 48 hours of treatment
A number alone suffices; assume µM.

1. c1cc2cn[nH]c2cc1-c1cnc2ccc(NC3CCOCC3)nn12	4.8

Switching to the query record.
// IC50 value for CN(c1ccc2ncc(-c3ccc4cn[nH]c4c3)n2n1)C1CCOCC1 : 4

----------
test system: U251 cells expressing Fluc construct; assay: control Fluc (full length luciferase) reporter assay in U251 cells; type: cell-based; conditions: Homo sapiens, U-251, 6 h; Concn 50 uM; read-out: Fluc Imax % Inh
REPORTED METRIC: inhibition at 50 µM (%)
A number alone suffices; assume %.

1) Brc1cnc2ccc(NC3CCOCC3)nn12	32
2) CCC(C)NS(=O)(=O)c1ccc2oc(=O)ccc2c1 (stereo not drawn)	0
3) CN1CCN(Cc2ccc(-c3cnc4[nH]cc(-c5ccc6[nH]ccc6c5)c4c3)cc2)CC1	4
4) O=C(C1CCCC1)N1CCN(C(=O)C2CC2c2ccc3c(c2)OCO3)CC1 (stereo not drawn)	10
5) CCCN(C)c1ccc2ncc(-c3cnc4[nH]ncc4c3)n2n1	5
6) c1cc2cn[nH]c2cc1-n1nnc2cnc(NC3CCOCC3)nc21	36
7) CN(c1ccc2ncc(-c3ccc4[nH]cnc4c3)n2n1)C1CCOCC1	14
8) CN(c1ccc2ncc(-c3ccc4nccn4c3)n2n1)C1CCOCC1	6

Switching to the query record.
// inhibition at 50 µM value for O=C(CCn1ccc(=O)[nH]c1=O)N1CCN(C(=O)C2CC2c2ccc3c(c2)OCO3)CC1 (stereo not drawn) : 0

----------
Molecular target: HuR (Homo sapiens)
Construct: expressed in transfected cells; host or cells: U251 glioma cells, doxycycline-inducible constructs
Assay: cell-based split firefly luciferase-HuR dimerization assay
Settings: Concn 100 uM
Method: The oncogenic activity of HuR is driven by subcellular localization into the cytoplasm and formation of multimers of HuR. […] The evaluated compounds at different concentrations and the corresponding vehicle as the control were administered for 6 hours. The luminescence signals were detected by using InfinitiM200 plate reader (TECAN, Morrisville, NC) in the presence of the luciferase substrate luciferin (D-Luciferin, potassium salt), which was purchased from GoldBio (St Louis, MO). […]
Label 1 for high-side HuR N/C Imax % Inh (at or above 90%) and -1 for low-side HuR N/C Imax % Inh (below it).

1) Cc1cc(-c2cnn3c(NC[C@H]4C[C@@](C)(O)C4)cc(Oc4cccnc4)nc23)ccc1C(=O)NC1CC1	-1

Inquiry: HuR N/C Imax % Inh >= 90% for FC(F)(F)c1nnc2ccc(NCCc3c[nH]c4ccccc34)nn12 ?
Reply text: -1

Inquiry: HuR N/C Imax % Inh >= 90% for Clc1ccc2ncc(-c3ccc4cn[nH]c4c3)n2n1 ?
Reply text: -1

Inquiry: HuR N/C Imax % Inh >= 90% for CCCN(C)c1ccc2ncc(-c3ccc4cn[nH]c4c3)n2n1 ?
Reply text: 1
